Test system: hepatitis B virus
Assay: in vitro
Conditions: human

smiles_code	selectivity ratio
COc1cc(NCc2ccc(Cl)s2)ccc1-c1cnco1	36.8

###

System: hepatitis B virus strain A64 (lamivudine resistance)
Assay: in vitro
Details: human

smiles_code	subject_of_test	selectivity ratio
COc1cc(NCc2ccc(Cl)s2)ccc1-c1cnco1	hepatitis B virus strain A64 (lamivudine resistance)	> 28.1
